ASSAYED_TARGET: Tyrosine-protein kinase ABL1 (Homo sapiens, UniProt P00519)
Sequence (P00519 whole entry): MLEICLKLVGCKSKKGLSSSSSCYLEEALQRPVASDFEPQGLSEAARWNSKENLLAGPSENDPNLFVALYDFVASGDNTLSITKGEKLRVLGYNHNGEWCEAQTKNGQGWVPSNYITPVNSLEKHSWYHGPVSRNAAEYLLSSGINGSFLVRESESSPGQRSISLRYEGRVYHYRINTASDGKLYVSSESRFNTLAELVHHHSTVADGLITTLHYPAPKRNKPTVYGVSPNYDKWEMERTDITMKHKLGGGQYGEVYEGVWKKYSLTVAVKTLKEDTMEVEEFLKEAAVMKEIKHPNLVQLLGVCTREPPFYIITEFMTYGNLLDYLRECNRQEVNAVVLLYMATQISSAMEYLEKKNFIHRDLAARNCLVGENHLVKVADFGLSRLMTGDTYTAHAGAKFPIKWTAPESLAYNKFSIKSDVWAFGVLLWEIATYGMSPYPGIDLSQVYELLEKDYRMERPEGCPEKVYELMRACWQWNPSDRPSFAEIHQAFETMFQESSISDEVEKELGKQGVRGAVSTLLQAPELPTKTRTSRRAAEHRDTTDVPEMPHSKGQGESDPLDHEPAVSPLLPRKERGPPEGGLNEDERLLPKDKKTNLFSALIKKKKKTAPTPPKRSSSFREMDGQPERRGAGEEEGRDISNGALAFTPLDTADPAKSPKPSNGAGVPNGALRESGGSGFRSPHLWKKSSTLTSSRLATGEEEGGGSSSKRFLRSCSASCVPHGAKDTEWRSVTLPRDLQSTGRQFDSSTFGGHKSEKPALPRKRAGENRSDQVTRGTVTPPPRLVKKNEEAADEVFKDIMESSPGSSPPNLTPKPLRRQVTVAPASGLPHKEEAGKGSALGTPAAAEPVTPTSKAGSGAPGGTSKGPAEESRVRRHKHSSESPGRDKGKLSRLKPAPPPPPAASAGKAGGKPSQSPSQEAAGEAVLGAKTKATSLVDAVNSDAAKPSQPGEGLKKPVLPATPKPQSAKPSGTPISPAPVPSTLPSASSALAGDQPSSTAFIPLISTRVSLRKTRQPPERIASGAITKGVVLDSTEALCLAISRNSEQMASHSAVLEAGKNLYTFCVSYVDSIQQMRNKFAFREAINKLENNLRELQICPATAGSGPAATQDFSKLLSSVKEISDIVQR
ENDPOINT: pIC50
One number for each entry, as −log10 of the molar value.

Below, each entry is followed by its recorded pIC50 result.
COMPOUND	pIC50
COc1cc(Nc2c(C#N)cnc3cc(OCC4CCCN(C)C4)c(OC)cc23)c(Cl)cc1Cl (centres undefined)	8.34
COc1cc(Nc2c(C#N)cnc3cc(OCC4CCCCN4C)c(OC)cc23)c(Cl)cc1Cl (centres undefined)	7.25
COc1cc(Nc2c(C#N)cnc3cc(OC4CCN(C)CC4)c(OC)cc23)c(Cl)cc1Cl	7.05

[in] Indicate the recorded pIC50 value for this compound: "CCOc1cc(Nc2c(C#N)cnc3cc(OCC4CCN(C)CC4)c(OC)cc23)c(Cl)cc1Cl"
[out] 5.82
